system: Plasmodium falciparum; experiment: Antimalarial activity in Plasmodium falciparum K1 infected erythrocytes by [3H]hypoxanthine uptake; type: functional; details: K1, 72 h, read-out: ED50 (the source's name)
Would you kindly list EC50 for each of these compounds?
Report the value in µM with no unit label.

EC50 measured on `Cn1cnc(S(=O)(=O)N(CC2CCN(C(=O)OC(C)(C)C)CC2)[C@H]2CC[C@@H](N(Cc3cncn3C)c3ccc(C#N)cc3)CC2)c1` = 0.65

EC50 measured on Cn1cnc(S(=O)(=O)N(Cc2ccsc2)[C@@H]2CCC[C@@H]2N(Cc2cncn2C)c2ccc(C#N)cc2)c1 (racemic) = 4.2

EC50 measured on Cc1ccccc1CN([C@@H]1CCC[C@@H]1N(Cc1cncn1C)c1ccc(C#N)cc1)S(=O)(=O)c1cn(C)cn1 (racemic) = 2.8

EC50 measured on Cn1cnc(S(=O)(=O)N(Cc2ccsc2)[C@@H]2CC[C@@H](N(Cc3cncn3C)c3ccc(C#N)cc3)C2)c1 (racemic) = 1.2

EC50 measured on `Cn1cnc(S(=O)(=O)N(Cc2ccccc2)[C@H]2CC[C@@H](N(Cc3cncn3C)c3ccc(C#N)cc3)CC2)c1` = 2.75

EC50 measured on Cc1ccccc1CN([C@H]1CCC[C@@H]1N(Cc1cncn1C)c1ccc(C#N)cc1)S(=O)(=O)c1cn(C)cn1 (racemic) = 3.2

EC50 measured on Cn1cnc(S(=O)(=O)N(CC2CCN(c3ncccn3)CC2)[C@@H]2CC[C@@H](N(Cc3cncn3C)c3ccc(C#N)cc3)C2)c1 (racemic) = 1.5

EC50 measured on Cn1cnc(S(=O)(=O)N(Cc2ccsc2)[C@H]2CC[C@@H](N(Cc3cncn3C)c3ccc(C#N)cc3)C2)c1 (racemic) = 2.5

EC50 measured on Cn1cnc(S(=O)(=O)N(CC2CCN(c3ncccn3)CC2)[C@@H]2CCC[C@@H]2N(Cc2cncn2C)c2ccc(C#N)cc2)c1 (racemic) = 2.5

EC50 measured on Cn1cnc(S(=O)(=O)N(CC2CCN(c3ncccn3)CC2)[C@H]2CC[C@@H](N(Cc3cncn3C)c3ccc(C#N)cc3)C2)c1 (racemic) = 0.72

EC50 measured on Cc1ccccc1CN([C@H]1CC[C@@H](N(Cc2cncn2C)c2ccc(C#N)cc2)C1)S(=O)(=O)c1cn(C)cn1 (racemic) = 2.6

EC50 measured on `Cn1cnc(S(=O)(=O)N(CCN(Cc2cncn2C)c2ccc(C#N)cc2)Cc2ccsc2)c1` = 0.24

EC50 measured on `Cn1cnc(S(=O)(=O)N(CCCN(Cc2cncn2C)c2ccc(C#N)cc2)Cc2ccccc2)c1` = 2.65

EC50 measured on Cc1ccccc1CN([C@@H]1CC[C@@H](N(Cc2cncn2C)c2ccc(C#N)cc2)C1)S(=O)(=O)c1cn(C)cn1 (racemic) = 2.2

EC50 measured on `Cn1cnc(S(=O)(=O)N(CC2CCN(C(=O)OC(C)(C)C)CC2)[C@H]2CC[C@H](N(Cc3cncn3C)c3ccc(C#N)cc3)CC2)c1` = 1.2

EC50 measured on Cn1cnc(S(=O)(=O)N(Cc2ccccc2)[C@H]2CCC[C@@H]2N(Cc2cncn2C)c2ccc(C#N)cc2)c1 (racemic) = 2.35

EC50 measured on Cn1cnc(S(=O)(=O)N(Cc2ccccc2)[C@@H]2CC[C@@H](N(Cc3cncn3C)c3ccc(C#N)cc3)C2)c1 (racemic) = 0.145

EC50 measured on Cn1cnc(S(=O)(=O)N(Cc2ccsc2)[C@H]2CCC[C@@H]2N(Cc2cncn2C)c2ccc(C#N)cc2)c1 (racemic) = 2.7

EC50 measured on Cn1cnc(S(=O)(=O)N(CC2CCN(C(=O)OC(C)(C)C)CC2)[C@H]2CC[C@@H](N(Cc3cncn3C)c3ccc(C#N)cc3)C2)c1 (racemic) = 0.125

EC50 measured on Cn1cnc(S(=O)(=O)N(CC2CCN(C(=O)OC(C)(C)C)CC2)[C@@H]2CCC[C@@H]2N(Cc2cncn2C)c2ccc(C#N)cc2)c1 (racemic) = 1.25

EC50 measured on Cn1cnc(S(=O)(=O)N(CC2CCN(c3ncccn3)CC2)[C@H]2CCC[C@@H]2N(Cc2cncn2C)c2ccc(C#N)cc2)c1 (racemic) = 0.75

----------
test system: Plasmodium falciparum; assay: Inhibition of Plasmodium falciparum PFT at 5 nM
ENDPOINT NAME: inhibition (%)
Report the value in % with no unit label.

inhibition measured on Cn1cnc(S(=O)(=O)N(Cc2ccccc2)[C@H]2CC[C@@H](N(Cc3cncn3C)c3ccc(C#N)cc3)C2)c1 (racemic) = 4

inhibition measured on Cn1cnc(S(=O)(=O)N(Cc2ccccc2)[C@H]2CCC[C@@H]2N(Cc2cncn2C)c2ccc(C#N)cc2)c1 (racemic) = 20

inhibition measured on `Cc1ccccc1CN(CCN(Cc1cncn1C)c1ccc(C#N)cc1)S(=O)(=O)c1cn(C)cn1` = 95

inhibition measured on Cn1cnc(S(=O)(=O)N(CC2CCN(C(=O)OC(C)(C)C)CC2)[C@H]2CCC[C@@H]2N(Cc2cncn2C)c2ccc(C#N)cc2)c1 (racemic) = 41

----------
system: Plasmodium falciparum; assay: Inhibition of Plasmodium falciparum PFT at 5 nM
Classify by measured inhibition: condition met if it is equal to or exceeds 20%, condition not met if it is smaller.

Textbook exercise: given the entry `Cn1cnc(S(=O)(=O)N(CCCN(Cc2cncn2C)c2ccc(C#N)cc2)Cc2ccsc2)c1` , state whether its inhibition is greater than or equal to 20%.
condition not met

Textbook exercise: given the entry `Cn1cnc(S(=O)(=O)N(CCN(Cc2cncn2C)c2ccc(C#N)cc2)CC2CCN(C(=O)OC(C)(C)C)CC2)c1` , state whether its inhibition is greater than or equal to 20%.
condition met

Textbook exercise: given the entry Cc1ccccc1CN([C@H]1CCC[C@@H]1N(Cc1cncn1C)c1ccc(C#N)cc1)S(=O)(=O)c1cn(C)cn1 (racemic) , state whether its inhibition is greater than or equal to 20%.
condition not met

Textbook exercise: given the entry `Cn1cnc(S(=O)(=O)N(CCCN(Cc2cncn2C)c2ccc(C#N)cc2)CC2CCN(C(=O)OC(C)(C)C)CC2)c1` , state whether its inhibition is greater than or equal to 20%.
condition met

Textbook exercise: given the entry `Cn1cnc(S(=O)(=O)N(Cc2ccccc2)CC(C)(C)N(Cc2cncn2C)c2ccc(C#N)cc2)c1` , state whether its inhibition is greater than or equal to 20%.
condition met

Textbook exercise: given the entry `Cn1cnc(S(=O)(=O)N(CCN(Cc2cncn2C)c2ccc(C#N)cc2)Cc2ccsc2)c1` , state whether its inhibition is greater than or equal to 20%.
condition met

Textbook exercise: given the entry Cn1cnc(S(=O)(=O)N(CC2CCN(C(=O)OC(C)(C)C)CC2)[C@H]2CC[C@@H](N(Cc3cncn3C)c3ccc(C#N)cc3)C2)c1 (racemic) , state whether its inhibition is greater than or equal to 20%.
condition met

Textbook exercise: given the entry Cc1ccccc1CN([C@@H]1CCC[C@@H]1N(Cc1cncn1C)c1ccc(C#N)cc1)S(=O)(=O)c1cn(C)cn1 (racemic) , state whether its inhibition is greater than or equal to 20%.
condition not met

Textbook exercise: given the entry `Cc1ccccc1CN(CCCN(Cc1cncn1C)c1ccc(C#N)cc1)S(=O)(=O)c1cn(C)cn1` , state whether its inhibition is greater than or equal to 20%.
condition met

Textbook exercise: given the entry `Cn1cnc(S(=O)(=O)N(CCCN(Cc2cncn2C)c2ccc(C#N)cc2)CC2CCN(c3ncccn3)CC2)c1` , state whether its inhibition is greater than or equal to 20%.
condition met

Textbook exercise: given the entry Cn1cnc(S(=O)(=O)N(Cc2ccsc2)[C@@H]2CCC[C@@H]2N(Cc2cncn2C)c2ccc(C#N)cc2)c1 (racemic) , state whether its inhibition is greater than or equal to 20%.
condition not met

Textbook exercise: given the entry `Cn1cnc(S(=O)(=O)N(CCN(Cc2cncn2C)c2ccc(C#N)cc2)CC2CCN(c3ncccn3)CC2)c1` , state whether its inhibition is greater than or equal to 20%.
condition met

Textbook exercise: given the entry Cn1cnc(S(=O)(=O)N(Cc2ccsc2)[C@H]2CCC[C@@H]2N(Cc2cncn2C)c2ccc(C#N)cc2)c1 (racemic) , state whether its inhibition is greater than or equal to 20%.
condition not met

Textbook exercise: given the entry Cn1cnc(S(=O)(=O)N(Cc2ccccc2)[C@@H]2CCC[C@@H]2N(Cc2cncn2C)c2ccc(C#N)cc2)c1 (racemic) , state whether its inhibition is greater than or equal to 20%.
condition not met

Textbook exercise: given the entry `Cn1cnc(S(=O)(=O)N(CC2CCN(c3ncccn3)CC2)CC(C)(C)N(Cc2cncn2C)c2ccc(C#N)cc2)c1` , state whether its inhibition is greater than or equal to 20%.
condition met

Textbook exercise: given the entry Cn1cnc(S(=O)(=O)N(CC2CCN(c3ncccn3)CC2)[C@@H]2CCC[C@@H]2N(Cc2cncn2C)c2ccc(C#N)cc2)c1 (racemic) , state whether its inhibition is greater than or equal to 20%.
condition not met

Textbook exercise: given the entry `Cc1ccccc1CN(CC(C)(C)N(Cc1cncn1C)c1ccc(C#N)cc1)S(=O)(=O)c1cn(C)cn1` , state whether its inhibition is greater than or equal to 20%.
condition met

Textbook exercise: given the entry `Cn1cnc(S(=O)(=O)N(CCN(Cc2cncn2C)c2ccc(C#N)cc2)Cc2ccccc2)c1` , state whether its inhibition is greater than or equal to 20%.
condition met

Textbook exercise: given the entry `Cn1cnc(S(=O)(=O)N(CCCN(Cc2cncn2C)c2ccc(C#N)cc2)Cc2ccccc2)c1` , state whether its inhibition is greater than or equal to 20%.
condition not met

Textbook exercise: given the entry Cn1cnc(S(=O)(=O)N(CC2CCN(C(=O)OC(C)(C)C)CC2)[C@@H]2CC[C@@H](N(Cc3cncn3C)c3ccc(C#N)cc3)C2)c1 (racemic) , state whether its inhibition is greater than or equal to 20%.
condition met

Textbook exercise: given the entry Cn1cnc(S(=O)(=O)N(CC2CCN(c3ncccn3)CC2)[C@H]2CCC[C@@H]2N(Cc2cncn2C)c2ccc(C#N)cc2)c1 (racemic) , state whether its inhibition is greater than or equal to 20%.
condition not met

Textbook exercise: given the entry Cn1cnc(S(=O)(=O)N(CC2CCN(C(=O)OC(C)(C)C)CC2)[C@@H]2CCC[C@@H]2N(Cc2cncn2C)c2ccc(C#N)cc2)c1 (racemic) , state whether its inhibition is greater than or equal to 20%.
condition not met

Textbook exercise: given the entry Cn1cnc(S(=O)(=O)N(Cc2ccccc2)[C@@H]2CC[C@@H](N(Cc3cncn3C)c3ccc(C#N)cc3)C2)c1 (racemic) , state whether its inhibition is greater than or equal to 20%.
condition met
